The reported measurements were obtained from PubChem BioAssay (NCATS).

Attribute: max response
- Tested on: NIH3T3
- assay: Cytotoxic Profiling of Annotated Libraries Using Quantitative High-Throughput Screening (AID 1296008); note: % is set by controls: 0 for no effect and ±100 for the full control effect; nearly all actives have a fitted effect of over 60% in size
- particulars: Five cell lines viability, CellTiter-Glo ATP luminescence, 48-72 h; hits give low values
Inconclusive results are not listed.
endpoint: max response (%)

molecule: CC(=O)O[C@]1(C(C)=O)CC[C@H]2[C@@H]3C[C@H](C)C4=CC(=O)C=C[C@]4(C)[C@@]3(F)[C@@H](O)C[C@@]21C
endpoint: max response
assayValue: 3.11
--
molecule: Cc1cc(C)c(CNC(=O)c2cc(-c3ccc(CN4CCOCC4)cc3)cc3c2cnn3C2CCCC2)c(=O)[nH]1
endpoint: max response
assayValue: -0.531
--
molecule: C=C[C@@]12COC(=O)C(=C)C1[C@@H](O)[C@H](C(=C)C(=O)OC)[C@@H](OC(=O)C(=C)CO)C2 (stereo partly specified)
endpoint: max response
assayValue: -25.8
--
molecule: C/C=C(\C)C(=O)O[C@@H]1CC2[C@@H](CC=C3C[C@@H](O[C@H]4C[C@H](OC)[C@H](O[C@H]5C[C@H](OC)[C@H](O[C@@H]6O[C@H](C)[C@@H](O[C@H]7C[C@H](OC)[C@H](O[C@@H]8O[C@H](CO)[C@@H](O)[C@H](O)[C@H]8O)[C@@H](C)O7)[C@H](OC)[C@H]6O)[C@@H](C)O5)[C@@H](C)O4)CC[C@@]32C)[C@@]2(O)CC[C@H](C(C)=O)[C@@]12C (stereo partly specified)
endpoint: max response
assayValue: -3.87
--
molecule: CC(=O)OC[C@@]12C(=O)C[C@@H](C)[C@]3(C[C@@H](c4ccoc4)O[C@H]3OC(C)=O)[C@H]1CCC[C@]21CO1
endpoint: max response
assayValue: 3.02
--
molecule: NC(=O)[C@H](O[C@@H]1O[C@H](CO)[C@@H](O)[C@H](O)[C@H]1O)c1ccccc1
endpoint: max response
assayValue: 4.94
